Overview of recorded T/C for various compounds
Test system: L1210 leukemia ip in BDF1 mice, survival T/C
Test: NCI In Vivo Anticancer Drug Screen. Data for tumor model L1210 Leukemia (intraperitoneal) in B6D2F1 (BDF1) mice
Settings: endpoint: mean survival time; dose: 200.0 mg/kg/injection; schedule: Q04DX003 (ip); vehicle: saline with Tween-80; higher = longer survival
Toxic doses and inconclusive results are not listed.

Some solved entries appear below for comparison.
>  <Compound>
COc1ccc(OC)c(/C=C(C(=O)O)/C(=C/c2cc(OC)ccc2OC)C(=O)O)c1

>  <Result>
102 % of control

$$$$
>  <Compound>
Nc1ncnc2c1ncn2C1CC(O)C(CO)O1 (stereo unspecified)

>  <Result>
98 % of control

$$$$
>  <Compound>
CCCC(CC)NC(N)=O (stereo unspecified)

>  <Result>
95 % of control

$$$$
>  <Compound>
[CH3][Sb]([CH3])([CH3])([O]C(=O)C(Cl)Cl)[O]C(=O)C(Cl)Cl

>  <Result>
108 % of control

$$$$
>  <Compound>
COC(=O)c1cc(Cl)cc(C(=O)OC)c1

>  <Result>
93 % of control

$$$$

Query: Output T/C of CCCCC/C(C=O)=C\c1ccccc1
Response: 96 % of control

====

Overview of recorded T/C for various compounds
Test system: L1210 leukemia ip in BDF1 mice, survival T/C
Experiment: NCI In Vivo Anticancer Drug Screen. Data for tumor model L1210 Leukemia (intraperitoneal) in B6D2F1 (BDF1) mice
Conditions: endpoint: mean survival time; dose: 12.5 mg/kg/injection; schedule: Q04DX003 (ip); vehicle: saline with Tween-80; higher = longer survival
Toxic doses and inconclusive results are not listed.

Some solved entries appear below for comparison.
>  <Compound>
C[N+](C)(C)C1(Cc2ccc(F)cc2)c2ccccc2-c2ccccc21

>  <Tgt>
L1210 leukemia ip in BDF1 mice, survival T/C

>  <Result>
90 % of control

$$$$
>  <Compound>
Cc1cccc(C(=O)C=C(C(F)(F)F)C(F)(F)F)c1

>  <Tgt>
L1210 leukemia ip in BDF1 mice, survival T/C

>  <Result>
103 % of control

$$$$
>  <Compound>
N#C/C(=C\c1ccc(-c2ccccc2)cc1)c1ccccc1

>  <Tgt>
L1210 leukemia ip in BDF1 mice, survival T/C

>  <Result>
109 % of control

$$$$

Query: Output T/C of CNC(C)(C)C(SSSC(c1ccc(Cl)cc1)C(C)(C)NC)c1ccc(Cl)cc1 (centres undefined)
Response: 98 % of control

====

Tested on: L1210 leukemia ip in BDF1 mice, survival T/C
Experiment: NCI In Vivo Anticancer Drug Screen. Data for tumor model L1210 Leukemia (intraperitoneal) in B6D2F1 (BDF1) mice
Settings: endpoint: mean survival time; dose: 40.0 mg/kg/injection; schedule: Q01DX001 (ip); vehicle: saline; higher = longer survival
Toxic doses and inconclusive results are not listed.
Assay readout: T/C

Some solved entries appear below for comparison.
>  <Compound>
CCCCCCCCCCCCCCCCC1=NCCN1

>  <Assay readout>
T/C

>  <Result>
101 % of control

$$$$
>  <Compound>
Cc1ccc2[nH]c(C)cc(=O)c2c1

>  <Assay readout>
T/C

>  <Result>
98 % of control

$$$$
>  <Compound>
O=[As](O)(O[As](=O)(O)c1ccccc1)c1ccccc1

>  <Assay readout>
T/C

>  <Result>
101 % of control

$$$$
>  <Compound>
OC1COC(n2cnc3c(=S)nc[nH]c32)CC1O (configuration not stated)

>  <Assay readout>
T/C

>  <Result>
95 % of control

$$$$
>  <Compound>
CC[N+]1(CC)CCC(OC(=O)C(O)(c2ccccc2)c2ccccc2)C1 (configuration not stated)

>  <Assay readout>
T/C

>  <Result>
97 % of control

$$$$
>  <Compound>
c1cc[c]([Sn]([O][Sn]([c]2ccccc2)([c]2ccccc2)[c]2ccccc2)([c]2ccccc2)[c]2ccccc2)cc1

>  <Assay readout>
T/C

>  <Result>
93 % of control

$$$$

API: the following record is the query input.
Query: Output T/C of Cc1nnc(NS(=O)(=O)c2ccc(N=Nc3c(N)nc(N)[nH]c3=O)cc2)s1
Response: 102 % of control

====

System: L1210 leukemia ip in BDF1 mice, survival T/C
Assay: NCI In Vivo Anticancer Drug Screen. Data for tumor model L1210 Leukemia (intraperitoneal) in B6D2F1 (BDF1) mice
Settings: endpoint: mean survival time; dose: 400.0 mg/kg/injection; schedule: Q01DX001 (ip); vehicle: saline; higher = longer survival
Protocol: The antitumor activity of compounds was measured in mice bearing transplantable tumors. Survival or tumor size were measured and the results are expressed as the measurement made in the treated group (T) divided by the measurement made in the vehicle treated control group (C). The tumor model used in this assay is L1210 Leukemia (intraperitoneal) in B6D2F1 (BDF1) mice
Inconclusive results and toxic doses are left out.
Assay readout: T/C

>  <Molecule>
CC(C)NNC(=O)c1cccnc1

>  <Tgt>
L1210 leukemia ip in BDF1 mice, survival T/C

>  <Assay readout>
T/C

>  <Result>
95 % of control

$$$$
>  <Molecule>
C/C=C/C(=O)NCC(=O)O

>  <Tgt>
L1210 leukemia ip in BDF1 mice, survival T/C

>  <Assay readout>
T/C

>  <Result>
103 % of control

$$$$

Query: Output T/C of COc1cc2c(cc1OC)/C(=C\C#N)NCC2
Response: 100 % of control

Query: Output T/C of CC1C=CC(C(N)C(=O)O)O1 (stereo not drawn)
Response: 101 % of control

Query: Output T/C of O=[N+]([O-])c1ccc(O)c(/C=N/N2CCN(/N=C/c3cc([N+](=O)[O-])ccc3O)CC2)c1
Response: 97 % of control

Query: Output T/C of COC(=O)CCC(N=C=O)C(=O)OC (stereo not drawn)
Response: 106 % of control

Query: Output T/C of O=C(N/N=C/c1ccc(O)cc1O)c1cccc2ccccc12
Response: 92 % of control

Query: Output T/C of O=CC12C=CC(CC1)C1C(=O)OC(=O)C12 (stereo not drawn)
Response: 96 % of control

Query: Output T/C of Nc1cccc(OCCOc2cccc(S(=O)(=O)F)c2)c1
Response: 90 % of control

Query: Output T/C of O=CO.[Pb]
Response: 98 % of control

Query: Output T/C of CC(=O)OC1COC(n2cnc3c(N4CCCCC4)ncnc32)C(OC(C)=O)C1OC(C)=O (stereo not drawn)
Response: 96 % of control

Query: Output T/C of Nc1c(Cl)cc(S(=O)(=O)O)cc1Br
Response: 101 % of control

Query: Output T/C of CC1(C)C(=C(C#N)C#N)C(C)(C)C1=C(C#N)C#N
Response: 90 % of control

====

Test system: L1210 leukemia ip in BDF1 mice, survival T/C
Assay: NCI In Vivo Anticancer Drug Screen. Data for tumor model L1210 Leukemia (intraperitoneal) in B6D2F1 (BDF1) mice
Details: endpoint: mean survival time; dose: 50.0 mg/kg/injection; schedule: Q04DX003 (ip); vehicle: saline; higher = longer survival
Experimental: The antitumor activity of compounds was measured in mice bearing transplantable tumors. Survival or tumor size were measured and the results are expressed as the measurement made in the treated group (T) divided by the measurement made in the vehicle treated control group (C). The tumor model used in this assay is L1210 Leukemia (intraperitoneal) in B6D2F1 (BDF1) mice
Inconclusive results and toxic doses are left out.
Assay readout: T/C

>  <Molecule>
c1ccc(C2=NCCCO2)cc1

>  <Tgt>
L1210 leukemia ip in BDF1 mice, survival T/C

>  <T/C>
91 % of control

$$$$
>  <Molecule>
C/C(=N\[N+](C)(C)C)c1ccc(Br)cc1

>  <Tgt>
L1210 leukemia ip in BDF1 mice, survival T/C

>  <T/C>
104 % of control

$$$$
>  <Molecule>
CCCCCCOC(=O)CCCCCCCCCCC(=O)CCCCCC

>  <Tgt>
L1210 leukemia ip in BDF1 mice, survival T/C

>  <T/C>
101 % of control

$$$$
>  <Molecule>
CC(Cc1ccccc1)N(C)C (stereo not given)

>  <Tgt>
L1210 leukemia ip in BDF1 mice, survival T/C

>  <T/C>
101 % of control

$$$$
>  <Molecule>
Cc1nc(Br)c2cnccn12

>  <Tgt>
L1210 leukemia ip in BDF1 mice, survival T/C

>  <T/C>
97 % of control

$$$$
>  <Molecule>
Oc1ccc(Nc2ccnc3cc(Cl)ccc23)cc1CN1CCCC1

>  <Tgt>
L1210 leukemia ip in BDF1 mice, survival T/C

>  <T/C>
97 % of control

$$$$
>  <Molecule>
CC(N)c1ccccc1Cl (stereo not given)

>  <Tgt>
L1210 leukemia ip in BDF1 mice, survival T/C

>  <T/C>
96 % of control

$$$$
>  <Molecule>
C=CCc1cc(CN(C)CCO)c(O)c(OC)c1

>  <Tgt>
L1210 leukemia ip in BDF1 mice, survival T/C

>  <T/C>
95 % of control

$$$$
>  <Molecule>
COc1cc(C(O)CN)cc(OC)c1OC (stereo not given)

>  <Tgt>
L1210 leukemia ip in BDF1 mice, survival T/C

>  <T/C>
94 % of control

$$$$
>  <Molecule>
CCNNC

>  <Tgt>
L1210 leukemia ip in BDF1 mice, survival T/C

>  <T/C>
101 % of control

$$$$

Query: Output T/C of NC1(c2ccccc2)CCCCC1
Response: 101 % of control

Query: Output T/C of CNCC/C=C1\c2ccccc2CCSc2ccccc21
Response: 101 % of control

Query: Output T/C of BrC1CCCCCCC1Br (stereo not given)
Response: 96 % of control

Query: Output T/C of NC(=O)NC(CCl)NC(N)=O
Response: 94 % of control
